Where do these numbers come from? They come from PubChem BioAssay (NCI).

system: OVCAR-8 ovarian; assay: NCI-60 one-dose screen, 48 h; conditions: 10 µM unless noted
About 83,000 compounds went through this panel and 20% of them were active in at least one assay; those are over-represented in the sample as a whole. Calls of active or inactive are those of the source. How the source made its calls: active means growth percent below 10; inactive means the rest.
// one of Yes = active, No = inactive, no free text

[[record]]
compound = "C=C(C)[C@@H]1CC[C@]2(C(=O)NCCNCCN)CC[C@]3(C)[C@H](CC[C@@H]4[C@@]5(C)C/C(=C/c6ccncc6)C(=O)C(C)(C)[C@@H]5CC[C@]43C)[C@@H]12"
test_target = "OVCAR-8 ovarian"
qualitative_label = "No"

[[record]]
compound = "CC1=NN(c2nc(SCC(=O)Nc3nc4ccc(C)cc4s3)nc(-c3ccccc3)c2C#N)C(=O)C1"
test_target = "OVCAR-8 ovarian"
qualitative_label = "No"

[[record]]
compound = "COCCn1c(-c2csc(-c3cn(C)c4ccc(OC)cc34)n2)cc2cccnc21"
test_target = "OVCAR-8 ovarian"
qualitative_label = "No"

[[record]]
compound = "N#Cc1nc(-c2ccccc2)oc1S(=O)(=O)N1CCOCC1"
test_target = "OVCAR-8 ovarian"
qualitative_label = "No"

[[record]]
compound = "O=C(/C=C/c1cn(-c2ccccc2)nc1-c1ccc([N+](=O)[O-])cc1)c1ccc(Cl)cc1"
test_target = "OVCAR-8 ovarian"
qualitative_label = "No"

[[record]]
compound = "O=C(Cc1ccccc1)Nc1nc(O)c(/C=C2\\C(=O)C=Cc3ccccc32)s1"
test_target = "OVCAR-8 ovarian"
qualitative_label = "No"

[[record]]
compound = "COCCn1cc(-c2nc(-c3cc4cccnc4n3CCOC)cs2)c2cc(OC)ccc21"
test_target = "OVCAR-8 ovarian"
qualitative_label = "No"

[[record]]
compound = "C#COc1cccc(Nc2ncnc3ncc(NC(=O)CCl)cc23)c1"
test_target = "OVCAR-8 ovarian"
qualitative_label = "No"

[[record]]
compound = "COc1ccc2c(c1)[n+]([O-])c(C(=O)/C=C/C=C(\\Cl)c1cc(OC)c(OC)c(OC)c1)c(C)[n+]2[O-]"
test_target = "OVCAR-8 ovarian"
qualitative_label = "No"

[[record]]
compound = "CCN(CC)CCOc1ccc(C(=C(C)c2ccc(Cl)cc2)c2ccc(OCCN(CC)CC)cc2)cc1"
test_target = "OVCAR-8 ovarian"
qualitative_label = "Yes"


Asked: # fetch the recorded call for `N=C(N)c1ccc(-c2ccc(-c3ccc(F)cc3)o2)o1` here
Given back: Yes

Asked: # fetch the recorded call for `Brc1ccc(-n2cc(-c3nn[nH]n3)c(-c3cccs3)n2)cc1` here
Given back: No

Asked: # fetch the recorded call for `COC(=O)/C(CCC=C(C)C)=C1\[C@@H](OC(C)=O)C[C@@]2(C)[C@H]1C[C@@H](O)[C@H]1[C@@]3(C)CC[C@H](NCCN)[C@@H](C)[C@@H]3CC[C@@]12C` here
Given back: No

Asked: # fetch the recorded call for `CC1(C)CC2=C3C=C[C@@H]4[C@@]5(C)CCC(=O)C(C)(C)[C@@H]5CC[C@@]4(C)[C@]3(C)CC[C@@]2(C(=O)O)CC1=O` here
Given back: No

Asked: # fetch the recorded call for `O=C1/C(=C/c2ccc(Cl)cc2)COc2ccc(O)cc21` here
Given back: No

Asked: # fetch the recorded call for CC1=C(CCC(C)N(C)Cc2ccc(OCCCN3CCCC3)cc2)C(C)(C)CCC1 (stereo unspecified) here
Given back: No

Asked: # fetch the recorded call for `COc1cc(/C=C/C(=O)c2cccc(Nc3nc(Nc4ccccc4)nc(Nc4ccccc4)n3)c2)cc(OC)c1OC` here
Given back: No

Asked: # fetch the recorded call for COc1cc2c(c(OC)c1OC)C(=O)CC(c1cccc(NC(=O)c3ccc(Br)cc3)c1)O2 (stereo unspecified) here
Given back: No
